Examples of compounds with documented inhibition follow.
# STUDY_TARGET: Ribosomal protein S6 kinase alpha-4 (Homo sapiens) (UniProt O75676);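 also: values are mean inhibition of MSK2, from GSK PKIS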
# Sequence (O75676 whole entry, looked up): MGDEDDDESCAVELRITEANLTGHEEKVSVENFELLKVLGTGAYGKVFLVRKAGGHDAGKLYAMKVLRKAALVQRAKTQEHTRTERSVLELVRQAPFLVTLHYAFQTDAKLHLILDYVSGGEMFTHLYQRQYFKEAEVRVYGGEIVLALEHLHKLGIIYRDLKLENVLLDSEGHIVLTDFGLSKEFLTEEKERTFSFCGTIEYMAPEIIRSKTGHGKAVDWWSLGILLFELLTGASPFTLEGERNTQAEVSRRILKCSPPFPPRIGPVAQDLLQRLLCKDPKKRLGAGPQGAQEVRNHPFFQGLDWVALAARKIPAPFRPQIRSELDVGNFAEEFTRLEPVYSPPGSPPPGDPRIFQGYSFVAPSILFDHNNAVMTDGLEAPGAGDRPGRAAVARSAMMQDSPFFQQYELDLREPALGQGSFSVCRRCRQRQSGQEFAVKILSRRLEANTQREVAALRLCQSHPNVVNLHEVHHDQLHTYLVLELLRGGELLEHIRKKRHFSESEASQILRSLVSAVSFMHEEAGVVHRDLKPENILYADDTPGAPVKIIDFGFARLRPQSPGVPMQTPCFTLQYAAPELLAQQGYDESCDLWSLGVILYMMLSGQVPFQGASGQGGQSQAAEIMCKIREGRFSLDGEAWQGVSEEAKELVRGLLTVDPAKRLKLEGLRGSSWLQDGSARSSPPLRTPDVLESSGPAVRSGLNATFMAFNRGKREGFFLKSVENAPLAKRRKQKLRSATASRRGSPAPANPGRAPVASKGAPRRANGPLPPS
# CONDITION_SUMMARY: at 0.1 µM
Note to self: number, then unit, no commentary.

# count of solved cases: 4
May I ask what inhibition has been recorded for CN(C)CCNC(=O)Nc1ccc(N(C)c2ccnc(Nc3ccc(CS(C)(=O)=O)cc3)n2)cc1 ? 3.22%

Could you tell me which inhibition is on file for O=C1Nc2ccccc2/C1=C1\CCc2cc(O)ccc21 ? 16.3%

Suppose we examine the compound CS(=O)(=O)Nc1ccc(-c2ccc3c(NC(=O)C4CC4)n[nH]c3c2)cc1 ; what inhibition value has been reported? -1%

Data request, read-out inhibition, for CCS(=O)(=O)c1ccc(OC)c(Nc2ncc(-c3cccc(C(C)=O)c3)o2)c1 0.6%

// moving on: another record for inhibition
# query: inhibition of entry COc1ccc2ncn(-c3cc(O[C@H](C)c4ccccc4C(F)(F)F)c(C(N)=O)s3)c2c1 0.7%

----------
# Tested on: Epidermal growth factor receptor (Homo sapiens), P00533 [T790M]
# Sequence (P00533 whole entry T790M): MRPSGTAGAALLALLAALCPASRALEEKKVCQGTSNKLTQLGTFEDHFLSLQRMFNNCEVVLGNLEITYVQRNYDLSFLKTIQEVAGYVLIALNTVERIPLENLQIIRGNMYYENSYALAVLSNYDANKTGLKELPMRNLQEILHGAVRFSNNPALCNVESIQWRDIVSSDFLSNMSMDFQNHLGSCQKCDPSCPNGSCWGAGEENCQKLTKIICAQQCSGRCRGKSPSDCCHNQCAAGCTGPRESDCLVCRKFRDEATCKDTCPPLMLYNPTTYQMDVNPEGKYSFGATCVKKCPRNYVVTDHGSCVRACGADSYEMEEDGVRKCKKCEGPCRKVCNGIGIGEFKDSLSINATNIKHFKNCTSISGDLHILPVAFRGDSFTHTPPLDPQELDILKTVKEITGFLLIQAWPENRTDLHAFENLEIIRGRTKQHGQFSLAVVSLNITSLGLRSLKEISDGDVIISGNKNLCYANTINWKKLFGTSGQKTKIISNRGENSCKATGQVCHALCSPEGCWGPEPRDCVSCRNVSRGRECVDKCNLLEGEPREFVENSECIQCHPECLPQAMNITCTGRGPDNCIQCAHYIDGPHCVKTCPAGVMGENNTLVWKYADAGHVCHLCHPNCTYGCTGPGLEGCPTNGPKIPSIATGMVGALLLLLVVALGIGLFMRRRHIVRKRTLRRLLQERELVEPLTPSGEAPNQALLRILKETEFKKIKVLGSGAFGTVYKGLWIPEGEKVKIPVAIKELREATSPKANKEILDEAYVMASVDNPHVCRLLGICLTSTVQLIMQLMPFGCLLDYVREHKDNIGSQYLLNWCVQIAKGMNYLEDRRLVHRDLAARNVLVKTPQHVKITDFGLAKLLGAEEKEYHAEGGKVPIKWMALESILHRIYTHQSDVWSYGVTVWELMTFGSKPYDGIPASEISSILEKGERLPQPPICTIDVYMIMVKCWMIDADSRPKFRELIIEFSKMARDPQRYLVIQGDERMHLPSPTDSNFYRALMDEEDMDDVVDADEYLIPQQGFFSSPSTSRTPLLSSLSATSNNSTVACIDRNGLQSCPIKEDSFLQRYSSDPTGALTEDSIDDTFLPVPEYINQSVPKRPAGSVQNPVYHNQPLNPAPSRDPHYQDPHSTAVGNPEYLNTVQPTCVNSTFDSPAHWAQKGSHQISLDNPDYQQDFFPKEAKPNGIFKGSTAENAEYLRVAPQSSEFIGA
# CONDITION_SUMMARY: at 1 µM
This section presents compounds with their documented inhibition values.
Enter your answer as a number in %; do not include the unit.

Take a look at these entries with their results.
Identify the measured inhibition of COc1cccc(Nc2nccc(-c3cnn4ncccc34)n2)c1 for Epidermal growth factor receptor (Homo sapiens), P00533 [T790M]. 1.13

Query for Epidermal growth factor receptor (Homo sapiens), P00533 [T790M]: what inhibition does the record show for Cc1cc(O)cc(C)c1/C=C/c1cncc(C(N)=O)c1 ? 1.53

Form: Entry = COc1ccc(-c2nn3ncccc3c2-c2ccnc(Nc3ccc(F)c(F)c3)n2)cc1 | System = Epidermal growth factor receptor (Homo sapiens), P00533 [T790M] | inhibition = ____ 6.23

Request - read-out inhibition | tested on Epidermal growth factor receptor (Homo sapiens), P00533 [T790M] | compound CNC(=O)c1sc(-n2cnc3cc(OC)c(OC)cc32)cc1OCc1ccccc1C(F)(F)F 0.02

Find inhibition (Epidermal growth factor receptor (Homo sapiens), P00533 [T790M]) for the entry O=C1Nc2ccccc2/C1=C1\CCc2cc(O)ccc21 2.73

Moving on to the next compound.
Could you share what inhibition was measured for CCOc1ccc2c(-c3ccnc(Nc4cc(OC)cc(C(F)(F)F)c4)n3)cnn2n1 , tested on Epidermal growth factor receptor (Homo sapiens), P00533 [T790M]? 0.47

----------
# STUDY_TARGET: cAMP-dependent protein kinase catalytic subunit alpha (Homo sapiens);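 also: reported value is the mean percent inhibition of PKA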
# CONDITION_SUMMARY: at 0.1 µM
Answer Condition not met if inhibition is under 3%, and Condition met if it is 3% or more.

Below are worked cases with known answers.
Confirm if inhibition reported for the compound Cc1cc(O)cc(C)c1/C=C/c1cncc(C(N)=O)c1 is 3% or above. Condition not met

For this compound, is measured inhibition 3% or higher? CS(=O)(=O)CCNCc1ccoc1-c1ccc2ncnc(Nc3ccc(OCc4ccccc4)cc3)c2c1 Condition not met

Does N#Cc1cccc(Nc2ncc(-c3ccccc3)o2)c1 have a reported inhibition of at least 3%? Condition not met

For this compound, is measured inhibition 3% or higher? COc1cc2c(cc1Nc1nc(Nc3cccc(F)c3C(N)=O)c3cc[nH]c3n1)N(C(=O)CN1CCN(C(C)C)CC1)CC2 Condition met

Quick check, inhibition >= 3%? CNC(=O)c1sc(-n2cnc3cc(OC)c(OC)cc32)cc1OCc1ccccc1C(F)(F)F Condition not met

Would you say NS(=O)(=O)c1cccc(N/C=C2\C(=O)Nc3ccccc32)c1 shows inhibition at minimum 3%? Condition not met

New cases:
Does CNC(=O)c1cncc(/C=C/c2ccccc2C)c1 have a reported inhibition of at least 3%? Condition met

In plain terms: is recorded inhibition at least 3% for CCCNc1cccc(-n2ncc3c(N/N=C/c4ccncc4)ncnc32)c1 ? Condition not met

Does CC(C)c1ccc(-c2cc(-c3c[nH]nc3-c3ccccn3)ccn2)cc1 have a reported inhibition of at least 3%? Condition not met
